Listed below: melting point values for each entry.

- molecule: "Nc1c2c(nc3sc4c(c13)CCCCC4)CCC2 [BN-18]"
  unit_text: "°C"
  melting point: 255
- molecule: "Cc1sc2nc3c(c(N)c2c1C)CCC(C)C3 (centres unmarked) [BN-3]"
  unit_text: "°C"
  melting point: 220
- molecule: "Nc1c2c(nc3sc4c(c13)CCCC4)CCC2 [BN-5]"
  unit_text: "°C"
  melting point: 221
- molecule: "Cc1sc2nc3c(c(N)c2c1C)CCC3 [BN-1]"
  unit_text: "°C"
  melting point: 231
- molecule: "Nc1c2c(nc3sc4c(c13)CCC4)CCCCCC2 [BN-17]"
  unit_text: "°C"
  melting point: 256
- molecule: "CC1CCc2c(nc3sc4c(c3c2N)CCC4)C1 (centres unmarked) [BN-15]"
  unit_text: "°C"
  melting point: 263.2
- molecule: "Cc1sc2nc3c(c(N)c2c1C)CCCC3 [BN-2]"
  unit_text: "°C"
  melting point: 210
- molecule: "Nc1c2c(nc3sc4c(c13)CCC4)CCC2 [BN-13]"
  unit_text: "°C"
  melting point: 245

Reference for the values: patent US20110269790A1
